inhibition at 1 µM listing for selected compounds.
# Assay System: serotonin transporter (SERT) (Homo sapiens, UniProt P31645)
# Construct: expressed in transfected cells; host or cells: CHO cells
# Sequence (P31645 whole entry): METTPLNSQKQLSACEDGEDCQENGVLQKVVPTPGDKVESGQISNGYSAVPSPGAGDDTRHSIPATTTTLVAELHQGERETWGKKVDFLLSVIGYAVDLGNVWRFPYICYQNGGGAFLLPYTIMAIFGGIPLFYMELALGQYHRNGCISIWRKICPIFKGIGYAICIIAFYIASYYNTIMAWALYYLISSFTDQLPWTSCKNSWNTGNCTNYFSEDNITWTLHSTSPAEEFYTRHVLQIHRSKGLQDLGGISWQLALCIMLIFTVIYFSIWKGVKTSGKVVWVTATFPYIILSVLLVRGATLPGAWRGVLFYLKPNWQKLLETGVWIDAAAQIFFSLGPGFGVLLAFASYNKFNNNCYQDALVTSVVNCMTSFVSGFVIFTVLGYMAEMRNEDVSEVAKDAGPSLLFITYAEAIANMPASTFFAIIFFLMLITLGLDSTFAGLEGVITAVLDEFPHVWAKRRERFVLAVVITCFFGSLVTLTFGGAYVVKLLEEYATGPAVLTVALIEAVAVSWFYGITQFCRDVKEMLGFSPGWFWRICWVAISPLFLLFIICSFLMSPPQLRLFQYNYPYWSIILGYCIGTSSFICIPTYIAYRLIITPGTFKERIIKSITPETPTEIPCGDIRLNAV
# Procedure Text: Radioligand binding assay, serotonin transporter (SERT)
# Condition Parameters: binding assay, test compound 1×10^−6 M

[[record]]
compound = "N#Cc1ccc(S(=O)(=O)NC2CCN(CCCc3noc4cc(F)ccc34)C2)cc1 (centres unmarked)"
result = "35%"

[[record]]
compound = "O=S(=O)(NCC1CCN(CCCc2noc3cc(F)ccc23)C1)c1ccc(-c2ccccc2)cc1 (centres unmarked)"
result = "71%"

[[record]]
compound = "O=S(=O)(N[C@H]1CCN(CCCc2noc3cc(F)ccc23)C1)c1ccc2ccccc2c1"
result = "58%"


Prompt line: Entry O=S(=O)(NCC1CN(CCOc2cccc3ccccc23)C1)c1cccc2ccccc12 has what inhibition at 1 µM?
Response line: 25%

Prompt line: Entry O=S(=O)(N[C@@H]1CCN(CCCc2noc3cc(F)ccc23)C1)c1csc2ccccc12 has what inhibition at 1 µM?
Response line: 64%

---

# Assay System: 5-HT7 receptor (Homo sapiens, UniProt P34969)
# Construct: purchased PerkinElmer
# Sequence (P34969 whole entry): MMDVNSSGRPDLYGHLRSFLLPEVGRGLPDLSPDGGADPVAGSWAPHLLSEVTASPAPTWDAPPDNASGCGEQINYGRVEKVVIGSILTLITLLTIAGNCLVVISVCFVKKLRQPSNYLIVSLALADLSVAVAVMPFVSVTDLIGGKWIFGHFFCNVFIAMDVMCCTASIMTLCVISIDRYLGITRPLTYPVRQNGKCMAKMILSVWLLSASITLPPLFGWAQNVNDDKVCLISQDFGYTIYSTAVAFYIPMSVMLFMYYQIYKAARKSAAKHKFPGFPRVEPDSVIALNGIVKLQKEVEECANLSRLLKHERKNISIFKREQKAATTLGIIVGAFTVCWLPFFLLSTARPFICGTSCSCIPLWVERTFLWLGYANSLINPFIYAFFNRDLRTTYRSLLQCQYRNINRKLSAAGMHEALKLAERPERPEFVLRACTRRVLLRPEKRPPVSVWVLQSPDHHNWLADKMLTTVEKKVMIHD
# Procedure Text: Radioligand binding assay, serotoninergic 5-HT7 receptors;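 also: test compound at 1 µM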
# Condition Parameters: binding assay result in %, Table 5a
Parameter: inhibition at 1 µM (%)
The answer is to be given in %; state only the numeric part.

Prompt line: Entry O=S(=O)(NC1CCN(CCCc2noc3cc(F)ccc23)C1)c1ccc2c(c1)OCC2 (centres unmarked) has what inhibition at 1 µM?
Response line: 82

Prompt line: Entry O=S(=O)(NCC1CN(CCOc2cccc3ccccc23)C1)c1ccc2ccccc2c1 has what inhibition at 1 µM?
Response line: 100

---

D3 antag [%] listing for selected compounds.
# Assay System: D3 dopaminergic receptors (Homo sapiens)
# Procedure Text: Cellular functional assay, D3 dopaminergic receptors
# Type: cell-based
# Condition Parameters: antagonism, D3 (h), CHO cells, stimulus dopamine (10 nM)
The answer is to be given in %; state only the numeric part.

Prompt line: Value wanted: D3 antag [%] (D3 dopaminergic receptors (Homo sapiens)) of entry Cc1c(S(=O)(=O)N[C@@H]2CCN(CCCc3noc4cc(F)ccc34)C2)sc2ccc(Cl)cc12
Response line: 109

Prompt line: Value wanted: D3 antag [%] (D3 dopaminergic receptors (Homo sapiens)) of entry Cc1cccc(S(=O)(=O)NC2CCN(CCCc3c[nH]c4ccc(F)cc34)C2)c1 (stereo not drawn)
Response line: −10

Prompt line: Value wanted: D3 antag [%] (D3 dopaminergic receptors (Homo sapiens)) of entry COc1ccc2cc(S(=O)(=O)NC3CCN(CCCc4noc5cc(F)ccc45)C3)ccc2c1 (stereo not drawn)
Response line: 105

Prompt line: Value wanted: D3 antag [%] (D3 dopaminergic receptors (Homo sapiens)) of entry O=S(=O)(N[C@@H]1CCN(CCCc2noc3cc(F)ccc23)C1)c1ccc2ccccc2c1
Response line: 77

Prompt line: Value wanted: D3 antag [%] (D3 dopaminergic receptors (Homo sapiens)) of entry O=S(=O)(N[C@@H]1CCN(CCCc2noc3cc(F)ccc23)C1)c1cc2ccccc2o1
Response line: 117

Prompt line: Value wanted: D3 antag [%] (D3 dopaminergic receptors (Homo sapiens)) of entry O=S(=O)(NCC1CCN(CCOc2cccc3ccccc23)C1)c1ccc2ccccc2c1 (stereo not drawn)
Response line: 43

---

# Assay System: D3 dopaminergic receptors (Homo sapiens, UniProt P35462)
# Sequence (P35462 whole entry): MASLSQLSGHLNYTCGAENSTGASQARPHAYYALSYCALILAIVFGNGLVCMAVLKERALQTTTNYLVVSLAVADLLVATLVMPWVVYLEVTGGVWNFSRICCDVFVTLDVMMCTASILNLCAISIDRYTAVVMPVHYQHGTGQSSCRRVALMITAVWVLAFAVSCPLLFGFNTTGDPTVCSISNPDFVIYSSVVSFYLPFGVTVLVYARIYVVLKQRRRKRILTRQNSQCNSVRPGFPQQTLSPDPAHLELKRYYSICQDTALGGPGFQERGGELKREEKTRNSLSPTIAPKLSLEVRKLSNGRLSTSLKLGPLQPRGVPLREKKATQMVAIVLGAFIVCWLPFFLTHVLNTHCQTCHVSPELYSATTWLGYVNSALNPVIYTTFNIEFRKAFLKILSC
# Procedure Text: Cellular functional assay, D3 dopaminergic receptors
# Assay type: cell-based
# Condition Parameters: agonism, D3 (h), CHO cells, percent of control specific agonist response (0.3 μM dopamine for control)
D3 ag [%] listing for selected compounds.
The answer is to be given in %; state only the numeric part.

The examples below pair each entry with its known result.
[[record]]
compound = "O=S(=O)(NC1CCN(CCOc2nsc3ccccc23)C1)c1ccc2ccccc2c1 (stereo not drawn)"
parameter = "D3 ag [%]"
result_unit = "%"
measured_number = 66

[[record]]
compound = "O=S(=O)(NC1CCN(CCCc2noc3cc(F)ccc23)C1)c1cc2ccccc2s1 (stereo not drawn)"
parameter = "D3 ag [%]"
result_unit = "%"
measured_number = 0


Prompt line: Entry Cc1c(S(=O)(=O)NCC2CN(CCCc3noc4cc(F)ccc34)C2)sc2ccc(F)cc12 has what D3 ag [%]?
Response line: 5

Prompt line: Entry Cc1c(S(=O)(=O)N[C@@H]2CCN(CCCc3noc4cc(F)ccc34)C2)sc2ccc(F)cc12 has what D3 ag [%]?
Response line: −5

Prompt line: Entry O=S(=O)(NC1CCN(CCCc2noc3cc(F)ccc23)C1)c1cc2ccc(F)cc2s1 (stereo not drawn) has what D3 ag [%]?
Response line: −14

Prompt line: Entry O=S(=O)(NC1CCN(CCCc2noc3cc(F)ccc23)C1)c1ccc2ccccc2c1 (stereo not drawn) has what D3 ag [%]?
Response line: −8

---

# Assay System: α2C adrenergic receptors (Homo sapiens, UniProt P18825)
# Construct: expressed in transfected cells; host or cells: CHO cells
# Sequence (P18825 whole entry): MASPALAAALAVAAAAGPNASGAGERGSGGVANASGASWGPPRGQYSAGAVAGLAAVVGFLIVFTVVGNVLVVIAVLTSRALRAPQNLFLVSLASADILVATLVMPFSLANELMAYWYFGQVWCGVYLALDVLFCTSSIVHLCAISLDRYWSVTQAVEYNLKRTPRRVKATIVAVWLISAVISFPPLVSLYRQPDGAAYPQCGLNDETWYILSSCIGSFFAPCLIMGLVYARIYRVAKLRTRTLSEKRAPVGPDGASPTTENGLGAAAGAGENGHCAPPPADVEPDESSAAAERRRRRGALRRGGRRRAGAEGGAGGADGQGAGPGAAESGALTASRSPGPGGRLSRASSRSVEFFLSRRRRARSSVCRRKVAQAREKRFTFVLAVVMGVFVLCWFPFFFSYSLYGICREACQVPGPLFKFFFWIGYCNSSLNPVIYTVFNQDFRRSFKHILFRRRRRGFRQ
# Procedure Text: Radioligand binding assay, adrenergic α2C receptors
# Condition Parameters: test compound 1×10^−6 M
Would you please tag the item true (1) when its inhibition at 1 µM is 90% or above, and false (0) when it is below?

Take a look at these entries with their results.
[[record]]
compound = "O=S(=O)(N[C@@H]1CCN(CCCc2noc3cc(F)ccc23)C1)c1ccc2cc(Cl)ccc2c1"
category = "true (1)"

[[record]]
compound = "O=S(=O)(NC1CCN(CCCc2noc3cc(F)ccc23)C1)c1ccc(Cl)c(F)c1 (centres unmarked)"
category = "false (0)"

[[record]]
compound = "O=S(=O)(NCC1CCN(CCOc2cccc3c2OCCO3)C1)c1ccc(C(F)(F)F)cc1 (centres unmarked)"
category = "true (1)"

[[record]]
compound = "Cn1ccc2cc(S(=O)(=O)NC3CCN(CCCc4noc5cc(F)ccc45)C3)ccc21 (centres unmarked)"
category = "true (1)"

[[record]]
compound = "O=S(=O)(NC1CCN(CCCc2noc3cc(F)ccc23)C1)c1cccc2ccccc12 (centres unmarked)"
category = "false (0)"


Read the next record carefully.
Prompt line: Identify whether the reported inhibition at 1 µM of the following compound is 90% or greater: Cc1cc(S(=O)(=O)N[C@@H]2CCN(CCCc3noc4cc(F)ccc34)C2)c(C)s1
Response line: false (0)

---

# Assay System: M3 muscarinic receptors (Homo sapiens, UniProt P20309)
# Construct: expressed in transfected cells; host or cells: CHO cells
# Sequence (P20309 whole entry): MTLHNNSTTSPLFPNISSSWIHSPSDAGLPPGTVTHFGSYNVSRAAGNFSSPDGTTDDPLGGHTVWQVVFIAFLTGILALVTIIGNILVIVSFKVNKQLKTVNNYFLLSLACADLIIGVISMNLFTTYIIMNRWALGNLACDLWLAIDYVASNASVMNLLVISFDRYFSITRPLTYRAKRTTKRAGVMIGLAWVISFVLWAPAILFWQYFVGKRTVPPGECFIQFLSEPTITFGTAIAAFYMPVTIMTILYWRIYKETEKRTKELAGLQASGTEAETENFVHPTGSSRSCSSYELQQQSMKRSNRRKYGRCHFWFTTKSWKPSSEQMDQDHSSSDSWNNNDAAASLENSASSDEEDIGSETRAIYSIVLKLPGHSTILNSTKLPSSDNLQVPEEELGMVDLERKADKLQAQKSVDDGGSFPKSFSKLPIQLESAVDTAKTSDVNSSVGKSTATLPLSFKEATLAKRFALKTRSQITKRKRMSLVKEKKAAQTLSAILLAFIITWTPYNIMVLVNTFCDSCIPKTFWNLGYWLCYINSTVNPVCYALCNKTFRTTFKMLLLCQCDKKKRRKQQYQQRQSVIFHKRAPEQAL
# Procedure Text: Radioligand binding assay, muscarinic M3 receptors
# Condition Parameters: test compound 1×10^−6 M
Parameter: M3 [%] (%)
The answer is to be given in %; state only the numeric part.

[[record]]
compound = "O=S(=O)(NC1CCN(CCOc2cccc3ccccc23)C1)c1cccc(O)c1 (stereo not shown)"
measured_number = 13

[[record]]
compound = "O=S(=O)(NC1CN(CCOc2cccc3c2OCCO3)C1)c1ccc(Cl)cc1"
measured_number = 4

[[record]]
compound = "CC1(C)Cc2cccc(OCCN3CCC(NS(=O)(=O)c4cccc(O)c4)CC3)c2O1"
measured_number = 3


Consider the additional compound presented here.
Prompt line: Entry O=S(=O)(NC1CN(CCOc2cccc3c2OCCO3)C1)c1cccc(F)c1 has what M3 [%]?
Response line: −6

---

# Assay System: 5-HT2A receptor (Homo sapiens, UniProt P28223)
# Construct: purchased PerkinElmer
# Sequence (P28223 whole entry): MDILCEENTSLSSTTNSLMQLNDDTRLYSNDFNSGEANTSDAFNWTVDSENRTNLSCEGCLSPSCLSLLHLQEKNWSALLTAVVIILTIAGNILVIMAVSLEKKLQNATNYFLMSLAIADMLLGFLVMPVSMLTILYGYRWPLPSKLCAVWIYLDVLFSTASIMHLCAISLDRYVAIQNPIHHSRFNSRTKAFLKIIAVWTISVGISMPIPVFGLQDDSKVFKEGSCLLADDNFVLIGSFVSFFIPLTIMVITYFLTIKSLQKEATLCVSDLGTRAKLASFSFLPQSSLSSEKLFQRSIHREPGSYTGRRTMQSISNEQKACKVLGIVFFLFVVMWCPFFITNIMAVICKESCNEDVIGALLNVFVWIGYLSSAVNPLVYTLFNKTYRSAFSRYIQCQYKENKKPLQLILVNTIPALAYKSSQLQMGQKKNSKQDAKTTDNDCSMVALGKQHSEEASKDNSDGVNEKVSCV
# Procedure Text: Radioligand binding assay, serotoninergic 5-HT2A receptors
# Condition Parameters: binding assay result in %, Table 5a
5-HT2A [%] listing for selected compounds.
The answer is to be given in %; state only the numeric part.

The examples below pair each entry with its known result.
[[record]]
compound = "O=S(=O)(NCC1CN(CCCc2noc3cc(F)ccc23)C1)c1cc2ccccc2s1"
parameter = "5-HT2A [%]"
measured_number = 99

[[record]]
compound = "O=S(=O)(NC1CN(CCOc2cccc3c2OCCO3)C1)c1ccc2ccccc2c1"
parameter = "5-HT2A [%]"
measured_number = 0

[[record]]
compound = "O=S(=O)(NC1CN(CCOc2cccc3c2OCCO3)C1)c1cccc2ccccc12"
parameter = "5-HT2A [%]"
measured_number = 99

[[record]]
compound = "O=S(=O)(NC1CCN(CCOc2cccc3ccccc23)C1)c1cccc(O)c1 (centres unmarked)"
parameter = "5-HT2A [%]"
measured_number = 99

[[record]]
compound = "O=S(=O)(NC1CCN(CCOc2nsc3ccccc23)CC1)c1ccc2ccccc2c1"
parameter = "5-HT2A [%]"
measured_number = 102


Prompt line: Entry O=S(=O)(NC1CN(CCOc2cccc3c2OCCO3)C1)c1cccc(F)c1 has what 5-HT2A [%]?
Response line: 74

Prompt line: Entry O=S(=O)(NC1CN(CCOc2cccc3c2OCCO3)C1)c1cccc(Cl)c1 has what 5-HT2A [%]?
Response line: 47

Prompt line: Entry O=S(=O)(NC1CCN(CCOc2cccc3ccccc23)CC1)c1ccc2ccccc2c1 has what 5-HT2A [%]?
Response line: 68

---

# Assay System: 5-HT2A receptor (Homo sapiens)
# Construct: purchased PerkinElmer
# Procedure Text: Radioligand binding assay, serotoninergic 5-HT2A receptors
# Condition Parameters: binding assay result in %, Table 5a
Parameter: inhibition at 1 µM (%)
The answer is to be given in %; state only the numeric part.

Prompt line: Entry O=S(=O)(NCC1CN(CCOc2cccc3ccccc23)C1)c1ccc2cc(Cl)ccc2c1 has what inhibition at 1 µM?
Response line: 99

Prompt line: Entry Cc1cc(S(=O)(=O)NCC2CCN(CCCc3noc4cc(F)ccc34)C2)c(C)s1 (stereo not shown) has what inhibition at 1 µM?
Response line: 85

Prompt line: Entry O=S(=O)(NCC1CN(CCOc2cccc3c2OCCO3)C1)c1ccc(F)cc1 has what inhibition at 1 µM?
Response line: 61

Prompt line: Entry O=S(=O)(NCC1CCN(CCCc2noc3cc(F)ccc23)C1)c1ccc2ccccc2c1 (stereo not shown) has what inhibition at 1 µM?
Response line: 99
